Reference source: paper PMC11157491

- Assay method text: Pharmacokinetic study in serum and brain
- Format: in vivo, mice
- Condition info: male, CD-1, mouse, ip; serum, i.p. 25 mg/kg, mice; read-out: Vz/F
Recorded metric: Vd/F (L/kg)
Field format: number, assumed L/kg, no unit text.

Requested field: Vd/F. Item: CC(=O)NC(C)C(=O)N1CCN(c2cccc(OC(F)(F)F)c2)CC1 (stereo not shown)
13.4

---

- Assay method text: Pharmacokinetic study in serum and brain
- Type: in vivo, mice
- Condition info: male, CD-1, mouse, ip; brain, i.p. 50 mg/kg, mice
Recorded metric: MRT

Requested field: MRT. Item: CC(=O)NC(C)C(=O)N1CCN(c2cccc(OC(F)(F)F)c2)CC1 (stereo not shown)
26.4 min

---

- Assay method text: Pharmacokinetic study in serum and brain
- Format: in vivo, mice
- Condition info: male, CD-1, mouse, brain/serum, intraperitoneal; oral; both doses and routes of administration; read-out: brain-to-serum Cmax and AUC ratio
Recorded metric: Kp

Requested field: Kp. Item: CC(=O)NC(C)C(=O)N1CCN(c2cccc(OC(F)(F)F)c2)CC1 (stereo not shown)
> 1

---

- Assay method text: Pharmacokinetic study in serum and brain
- Assay type: in vivo, mice
- Condition info: male, CD-1, mouse, ip; serum, i.p. 50 mg/kg, mice; read-out: λz (converted)
Recorded metric: k el (s⁻¹)
Field format: number, assumed s⁻¹, no unit text.

Requested field: k el. Item: CC(=O)NC(C)C(=O)N1CCN(c2cccc(OC(F)(F)F)c2)CC1 (stereo not shown)
0.000133

---

- Assay method text: Pharmacokinetic study in serum and brain
- Assay type: in vivo, mice
- Condition info: male, CD-1, mouse, po; serum, p.o. 25 mg/kg, mice
Recorded metric: CL/F
Could you kindly put the unit after your number?

Requested field: CL/F. Item: CC(=O)NC(C)C(=O)N1CCN(c2cccc(OC(F)(F)F)c2)CC1 (stereo not shown)
84 mL/min/kg

---

The entries below come with measured melting point values attached.

Reference set, count: 5
- Molecule: "CC(=O)NC(C)C(=O)NC1CCN(c2cccc(SC(F)(F)F)c2)C1 (stereo not drawn)"
  Measured value: "162.2 to 163.3 °C"
- Molecule: "CC(=O)NC(C)C(=O)NC1CCN(c2cccc(OC(F)(F)F)c2)C1 (stereo not drawn)"
  Measured value: "164.8 to 165.9 °C"
- Molecule: "CC(=O)NC(C)C(=O)N1CCN(c2cccc(SC(F)(F)F)c2)CC1 (stereo not drawn)"
  Measured value: "110.9 to 111.7 °C"
- Molecule: "CC(C)NC(=O)NC(C)C(=O)N1CCN(c2cccc(Cl)c2)CC1 (stereo not drawn)"
  Measured value: "147.4 to 148.2 °C"
- Molecule: "CCNC(=O)NC(C)C(=O)N1CCN(c2cccc(C(F)(F)F)c2)CC1 (stereo not drawn)"
  Measured value: "136.4 to 137.3 °C"

Requested field: melting point. Item: CC(=O)NC(C)C(=O)N1CCN(c2cccc(Oc3ccccc3)c2)CC1 (stereo not drawn)
133.6 to 134.3 °C

Requested field: melting point. Item: CC(=O)NC(C)C(=O)N1CCN(c2ccc(Cl)c(Cl)c2)CC1 (stereo not drawn)
152.1 to 152.9 °C

Requested field: melting point. Item: CC(=O)NC(C)C(=O)NC1CCN(c2cccc(C(F)(F)F)c2)C1 (stereo not drawn)
162.8 to 163.7 °C

Requested field: melting point. Item: CCNC(=O)NC(C)C(=O)N1CCN(c2cccc(Cl)c2)CC1 (stereo not drawn)
145.1 to 146.2 °C

---

The entries below come with measured melting point values attached.

Reference set, count: 5
- Compound: "CC(C)NC(=O)NC(C)C(=O)N1CCN(c2cccc(C(F)(F)F)c2)CC1 (stereo not drawn) [Compound 36]"
  melting point: "144.5 to 145.4 °C"
- Compound: "CC(NC(=O)c1ccccc1)C(=O)N1CCN(c2cccc(Cl)c2)CC1 (stereo not drawn) [Compound 31]"
  melting point: "177.8 to 178.5 °C"
- Compound: "CC(NC(=O)c1ccccc1)C(=O)N1CCN(c2cccc(C(F)(F)F)c2)CC1 (stereo not drawn) [Compound 32]"
  melting point: "165.8 to 166.5 °C"
- Compound: "CC(=O)NC(C)C(=O)N1CCN(c2ccc(Cl)cc2)CC1 (stereo not drawn) [Compound 23]"
  melting point: "144.9 to 145.8 °C"
- Compound: "CC(=O)NC(C)C(=O)N1CCN(c2ccc(C(F)(F)F)cc2)CC1 (stereo not drawn) [Compound 27]"
  melting point: "132.8 to 133.3 °C"

Requested field: melting point. Item: CC(=O)NC(C)C(=O)N1CCN(c2cc(Cl)cc(Cl)c2)CC1 (stereo not drawn) [Compound 25]
164.6 to 165.4 °C

Requested field: melting point. Item: CC(=O)NC(C)C(=O)N1CCN(c2cccc(Cl)c2)CC1 (stereo not drawn) [Compound 22]
125.8 to 126.5 °C

Requested field: melting point. Item: CC(=O)NC(C)C(=O)NC1CCN(c2ccccc2)C1 (stereo not drawn) [Compound 45]
176.6 to 177.8 °C

Requested field: melting point. Item: CC(=O)NC(C)C(=O)N1CCN(c2ccccc2)CC1 (stereo not drawn) [Compound 21]
113.6 to 114.9 °C
